tested on: ACHN renal; experiment: NCI tumour cell line growth inhibition, 48 h
readout-kind: TGI

1. COc1cc2cc(Oc3cccc(NC(=O)Nc4cc(C(F)(F)F)cc(C(F)(F)F)c4)c3)c(C)nc2cc1OC | 1.69 µM
2. Cc1ccc(C2CC(c3ccc(Nc4ccnc5cc(Cl)ccc45)cc3)=NN2C=O)cc1 (centres undefined) | > 100 µM
3. O=C1C(=O)C2(CC1S(=O)(=O)c1ccccc1)c1ccccc1-c1ccccc12 (centres undefined) | 92 µM

## Task Record lookup: for ACHN renal, what TGI belongs to Cc1nn(C(=O)c2ccncc2)c2c1C(c1ccccc1[N+](=O)[O-])SC(N)=N2 (centres undefined) ?
## Result > 10 µM

## Task Record lookup: for ACHN renal, what TGI belongs to Cc1cn(C2CC(N=[N+]=[N-])C(COP(=O)(O)OCC3OC(n4cc(F)c(=O)[nH]c4=O)CC3O)O2)c(=O)[nH]c1=O (centres undefined) ?
## Result > 100 µM
